- measurementTarget: deoxyHbS oligomers (HbS-rhodamine red / HbS-Cy5) (Homo sapiens, UniProt P68871+P69905, E7V)
- testName: Fluorescence lifetime (FLT) FRET assay of deoxyHbS oligomerization (LOPAC screen and dose response)
- Method: Development of HTS platform for identification of small molecules that inhibit in vitro HbS nucleation: Sickle hemoglobin (HbS) (sigma) was labeled with either fluorescent donor (rhodamine red) or acceptor (Cy5) dyes (Thermo fisher scientific) via a cysteine thiol group. […] The degree of labeling was calculated by comparing the absorption of the fluorophore conjugated hemoglobin at 280 nm to the absorbance of the dye at its maximum wavelength. […]
pIC50: −log10 of the molar value.

>  <molecule>
CN1C(=O)CCS(=O)(=O)C1c1ccc(Cl)cc1 (stereo not shown)

>  <pIC50>
< 4.00

$$$$
